measurement_label: melting point

Ask | For the compound shown here, Cc1ccc(CCc2ccccc2Br)c(NC=O)c1 , give the reported melting point.
Reply | 167 to 169 °C

Ask | For the compound shown here, Cc1c(C(C)O)ssc1=S (stereo not drawn) , give the reported melting point.
Reply | 79 to 80 °C

Ask | For the compound shown here, CN(C)C1CCN(c2cc3ccccc3c(=O)[nH]2)CC1 , give the reported melting point.
Reply | 204 to 205 °C

---

I'd be grateful if you could share measured melting point for these entries.

Ask | For the molecule shown here, COCCN(CCOC)C(=O)c1ccc(C(=O)N2CCN(c3ncccc3NC(C)C)CC2)cc1 , give the reported melting point.
Reply | 82 to 83 °C

Ask | For the molecule shown here, CC1(C)C=Cc2c(O)cc(-c3cc4ccc(O)cc4o3)cc2O1 , give the reported melting point.
Reply | > 250 °C

Ask | For the molecule shown here, O=C(CC(c1ccccc1)(c1ccccc1)c1ccccc1)N1CCC(O)(Cc2ccccc2)CC1 , give the reported melting point.
Reply | 150 to 166 °C

Ask | For the molecule shown here, O=C(Sc1ccc(O)cc1)c1cccc(C(=O)Sc2ccc(O)cc2)c1 , give the reported melting point.
Reply | 218 to 221 °C

Ask | For the molecule shown here, CC(=O)OCc1c(C)cc(C)c(NC(=O)c2sccc2S(=O)(=O)Nc2onc(C)c2C)c1C , give the reported melting point.
Reply | 75 to 77 °C

Ask | For the molecule shown here, FC(F)c1cc(Cl)nc2c1c(I)nn2C1CCCCO1 (stereo not drawn) , give the reported melting point.
Reply | 157 °C

Ask | For the molecule shown here, c1ccc(-c2ccc(COc3ccc4c(c3)CCC(CCn3ccnc3)C4)cc2)cc1 (stereo not drawn) , give the reported melting point.
Reply | 145 to 146 °C

Ask | For the molecule shown here, CC(C)(C)C(=O)Nc1nn(C(=O)C(C)(C)C)c(N)c1C#N , give the reported melting point.
Reply | 181 to 184 °C

Ask | For the molecule shown here, CC(=O)OCCN1CSC(=Cc2cc(C(C)(C)C)c(O)c(C(C)(C)C)c2)C1=O , give the reported melting point.
Reply | 152 to 155 °C

Ask | For the molecule shown here, O=C(OC(F)C(F)F)c1cnccn1 (stereo not drawn) , give the reported melting point.
Reply | 46 to 48 °C

Ask | For the molecule shown here, Cc1nc(C)c(Cl)c(NCc2ccc(Oc3ccc4ncc([N+](=O)[O-])n4n3)cc2)n1 , give the reported melting point.
Reply | 203 °C

Ask | For the molecule shown here, C#CCOc1cc(C2(C(F)(F)F)CC(=O)NC(OCC)=N2)c(F)cc1Br (stereo not drawn) , give the reported melting point.
Reply | 101 to 102 °C

Ask | For the molecule shown here, COc1cc2c(cc1OC(=O)c1ccccc1)C1Cc3c(Cl)cc(OC)c(OC(=O)c4ccccc4)c3CN1CC2 (stereo not drawn) , give the reported melting point.
Reply | 152 to 154 °C

---

measurement_label: melting point

Ask | For the compound shown here, COc1cc2sc(CC(C)(Oc3ccc(C(C)C)cc3)C(=O)O)cc2c(Cl)c1OC (stereo not drawn) , give the reported melting point.
Reply | 105 to 108 °C

Ask | For the compound shown here, CC(=C=CC(C)(C)c1ccc(Cl)cc1)C(=O)O , give the reported melting point.
Reply | 106 to 108 °C

Ask | For the compound shown here, CC(C)(C)COc1cccc(C[C@H](N)[C@H](O)c2cccc(Cl)c2)c1 (racemic) , give the reported melting point.
Reply | 115 to 116 °C

Ask | For the compound shown here, C[C@@H]1C[C@H](OC(=O)C(C)(C)Oc2ccc(C(=O)c3ccc(Cl)cc3)cc2)CC(C)(C)C1 (relative stereo) , give the reported melting point.
Reply | 65 °C

Ask | For the compound shown here, COC(=O)Cc1cccc(OCc2nc(CCc3nc(-c4ccccc4)oc3C)no2)c1 , give the reported melting point.
Reply | 76 to 77 °C

Ask | For the compound shown here, CC1(C)CC(O)=CC2(C1)NCC(c1cccc(O)c1)O2 (stereo not drawn) , give the reported melting point.
Reply | 217 °C

Ask | For the compound shown here, Cc1ccc(C(=O)Nc2ccc(CN3CCCCC3)c(C(F)(F)F)c2)cc1Br , give the reported melting point.
Reply | 151 to 153 °C

Ask | For the compound shown here, COc1cc2c(cc1OC)C(C)=[N+]([O-])C(c1ccccc1)N2 (stereo not drawn) , give the reported melting point.
Reply | 178 to 182 °C

---

I'd be grateful if you could share measured melting point for these entries.

Ask | For the compound shown here, COc1ccc(NC(=O)Cn2c3c(c4c(Cl)c(Cl)ccc42)CCN(C(=O)OC(C)(C)C)CC3)cc1 , give the reported melting point.
Reply | 143 to 144 °C

Ask | For the compound shown here, Cc1c(-c2ccccc2)oc2c(C(=O)OCCN3CCCCC3)cccc2c1=O , give the reported melting point.
Reply | 85 to 86 °C

Ask | For the compound shown here, C=CCCC(F)c1cccc(C2(c3ccc(OC(F)F)cc3)N=C(N)N(C)C2=O)c1 (stereo not drawn) , give the reported melting point.
Reply | 50 to 55 °C

Ask | For the compound shown here, Cc1cc(NS(C)(=O)=O)cc(C)c1S(=O)(=O)C[N+](=O)[O-] , give the reported melting point.
Reply | 138 to 140 °C

Ask | For the compound shown here, CCOCc1nc2c(N)nc3cc(-c4ccc(F)nc4)cnc3c2n1CC(C)(C)O , give the reported melting point.
Reply | 218 to 220 °C

Ask | For the compound shown here, O=C1C=C(c2c(Br)cc(Br)cc2Br)C(=O)N1 , give the reported melting point.
Reply | 140 to 143 °C

Ask | For the compound shown here, CCCOc1ccccc1-c1cccc(=O)[nH]1 , give the reported melting point.
Reply | 134 to 136 °C

Ask | For the compound shown here, Cc1nnc(-c2ccc3occ(-c4cc(C(F)(F)F)ccc4F)c3c2)o1 , give the reported melting point.
Reply | 178 to 179 °C

Ask | For the compound shown here, CCOC(=O)C1=C(C)NC(C)=C(C(=O)OC)C1c1ccc(SC)cc1 (stereo not drawn) , give the reported melting point.
Reply | 163 °C

Ask | For the compound shown here, CS(=O)CC(C)(C)NC(=O)c1c(I)cccc1-c1ccc(C(F)(F)F)cc1 (stereo not drawn) , give the reported melting point.
Reply | 155 to 158 °C

Ask | For the compound shown here, CC(=O)Nc1ccc(Cl)cc1C(=O)c1ccccc1Cl , give the reported melting point.
Reply | 108 to 110 °C

Ask | For the compound shown here, COc1ccc2c(c1)C(CC(=O)O)=C(C)C2=Cc1ccc(SC)cc1 , give the reported melting point.
Reply | 195 to 196 °C

Ask | For the compound shown here, CCCCSc1ccc(C2CC(=O)C(C(=O)CC)=C(O)C2)cc1 (stereo not drawn) , give the reported melting point.
Reply | 79 °C

---

measurement_label: melting point

Ask | For the compound shown here, COc1cc(N2CCC(N(C)C)C2)ccc1Nc1ncc2ccc(-c3ccccc3OC)n2n1 (centres undefined) , give the reported melting point.
Reply | 70 to 78 °C

Ask | For the compound shown here, CCCCCCc1ccc(C=CC(=O)c2ccc(OCC=C(C)C)cc2OCC(=O)OCC)cc1 , give the reported melting point.
Reply | 56 to 57 °C

Ask | For the compound shown here, COc1ccc(OC)c(-c2cn(N)c(N)n2)c1 , give the reported melting point.
Reply | 159 to 160 °C

Ask | For the compound shown here, O=c1scc(-c2ccc(CCO)cc2)s1 , give the reported melting point.
Reply | 92 to 94 °C

---

measurement_label: melting point

Ask | For the compound shown here, ON=Cc1ccc(-c2ccc(O)cc2)c2ccoc12 , give the reported melting point.
Reply | 219 to 220 °C

Ask | For the compound shown here, COc1ccc(-c2cnc(N)c(Sc3ccc(Cl)cc3)n2)cc1 , give the reported melting point.
Reply | 154 to 155 °C

Ask | For the compound shown here, O=C=NC(=O)SCc1ccccc1 , give the reported melting point.
Reply | 140 to 145 °C

Ask | For the compound shown here, CCNc1nc(Nc2ccccc2)ncc1C=O , give the reported melting point.
Reply | 155 to 157 °C

Ask | For the compound shown here, CCCCN1C(=O)c2ccc(O)cc2C1=O , give the reported melting point.
Reply | 126 to 127 °C

Ask | For the compound shown here, COC1=NC(=O)c2c1cc1ccc3c(c1c2-c1ccc2c(c1)OCO2)OCO3 , give the reported melting point.
Reply | 306 to 308 °C

Ask | For the compound shown here, CC(=O)c1cccc(NC(=O)c2ccc3c(c2)CC(COCc2ccccc2)O3)c1O (stereo not drawn) , give the reported melting point.
Reply | 103 to 105 °C

Ask | For the compound shown here, CC(C)N1C(=O)[C@@H](CCCC(=O)O)O[C@H](c2ccccc2Cl)c2cc(Cl)ccc21 (relative stereo) , give the reported melting point.
Reply | 158 to 160 °C

Ask | For the compound shown here, CN1CCC(c2n[nH]c3ccc(F)cc23)CC1 , give the reported melting point.
Reply | 202 to 204 °C

Ask | For the compound shown here, Cc1cc(NC(=O)NC(=O)c2c(Cl)cccc2Cl)cnc1-c1ccccc1 , give the reported melting point.
Reply | 202 to 205 °C

Ask | For the compound shown here, O=C(NCCCCO)c1c([N+](=O)[O-])ccc(N(CCBr)CCBr)c1[N+](=O)[O-] , give the reported melting point.
Reply | 114 to 117 °C

Ask | For the compound shown here, CC(C)Cc1nn(-c2ccccc2)c(CC(C)C)c1CC(=O)O , give the reported melting point.
Reply | 125 to 126 °C

Ask | For the compound shown here, COc1ccc(-c2ccc(C#N)cc2C(F)(F)F)cc1C=O , give the reported melting point.
Reply | 116 to 118 °C

Ask | For the compound shown here, Cc1cc(-c2ccc(C(F)(F)F)cc2)nc(-c2ccc(C(=O)O)cc2)n1 , give the reported melting point.
Reply | 272 to 275 °C

Ask | For the compound shown here, O=C(CCC1CCCCCCCCCCC1)C1=C(O)COC1=O , give the reported melting point.
Reply | 99 to 102 °C

Ask | For the compound shown here, CC(C)NC(=O)Nc1c(C(=O)c2ccccc2)[nH]c2cc(Cl)ccc12 , give the reported melting point.
Reply | 265 to 266 °C

Ask | For the compound shown here, CCCCOc1c(C(=O)O)n(CC(C)C)c(=O)c2ccc(OCc3ccccc3)cc12 , give the reported melting point.
Reply | 151 to 152 °C

Ask | For the compound shown here, O=C(Oc1cccc2ccccc12)n1c2c(c(=O)n(C3CCCCO3)c1=O)CCC2 (stereo not drawn) , give the reported melting point.
Reply | 160 °C

Ask | For the compound shown here, COc1ccc(C=CC(=O)c2cccc(OC)c2OC)cc1F , give the reported melting point.
Reply | 79.3 to 80.2 °C

Ask | For the compound shown here, CCN(CC)C(=CC(=O)OC)N1C(=O)C(=[N+]=[N-])c2ccccc21 , give the reported melting point.
Reply | 175 to 177 °C

Ask | For the compound shown here, Clc1cc2c(cc1CN1CCN(CCOc3ccccc3)CC1)OCO2 , give the reported melting point.
Reply | 72 to 76 °C

Ask | For the compound shown here, COC(=O)C(=CN(C)C)c1sc(Cl)nc1COc1ccccc1 , give the reported melting point.
Reply | 114 °C

Ask | For the compound shown here, COc1ccc2c(c1)Cc1nnc(S(C)=O)n1C=C2 (stereo not drawn) , give the reported melting point.
Reply | 176 to 177 °C
